- System: SN12C renal
- experiment_description: NCI-60 one-dose screen, 48 h (100 = growth as untreated, 0 = no growth, -100 = all killed)
- cond: 10 µM unless noted
About 83,000 compounds went through this panel and 20% of them were active in at least one assay; those are over-represented in the sample as a whole.
Reported growth values for the following compounds.
// units = %; emit number, no label

Below, each entry is followed by its recorded growth result.
NNC(=O)N/N=C1\C(=O)N(c2nccs2)C(=O)C(=O)C1c1nc2ccccc2s1 (stereo not drawn)
96
CC(C)N1CC(=O)N2CSCC2C1=O (stereo not drawn)
107
CCN(C(C)=O)c1ccc([N+](=O)[O-])cc1
105
c1cc(CNCCNCc2ccncc2)ccn1
98.5

Next item in the queue.
Task: Specify measured growth for C=CCNC(=S)N/C=C(/C(=O)c1ccccc1)c1ccccc1 .
Output: 93.6
